Value source: the nanobody polyreactivity screen of Harvey et al. (2022)

assayText: yeast display, Sf9 membrane polyspecificity reagent, FACS + sequencing; frameworks hold sequencing errors
endpointLabel: polyreactivity (PSR sort gate)

>>> result("QVQLVESGGGLVQAGGSLRLSCAASGFTFAYYAMGWYRQAPGKERELVAAITSGGSTKYADSVKGRFTISRDNAKNTVYLQMNSVKPEDTAVYYCFLRGRATQWDFGYWGQGTQVTVSS")
"high polyreactivity"
>>> result("QVQLVESGGGLVQAGGSLRLSCAASGSIFYGNAMGWYRQAPGKERELVAAISKRGGSTYYADSVKGRFTISRDNAKNTVYLQMNSLKPEDTAVYYCAKATAGHTEYYSWGQGTQVTVSS")
"high polyreactivity"

---

assayText: yeast display, Sf9 membrane polyspecificity reagent, FACS + sequencing; frameworks hold sequencing errors
endpointLabel: polyreactivity (PSR sort gate)

Illustrative cases are given below, each with its answer.
>>> result("QVQLVESGGGLVQAGGSLRLSCAASGSTFYTNAMGWYRQAPGKERELVAAITSSVGSTHYADSVKGRFTISRDNAKNTVYIQMNSLKPEDTAVYYCAATFGYGRYGYWGQGTQVTVSS")
"low polyreactivity"
>>> result("QVQLVESGGGLVQAGGSLRLSCAASGFIFATYAMGWYRQAPGKDRELVAAISRSGGSTYYADSVKGRFTISRDTAKNTVYSQMNCLKPEDTAVYYCAADSDPAPPDYDYWGQGTQVTVSS")
"high polyreactivity"
>>> result("QVQLVESGGGLVQAGGSLRLSCAASGRIFKWYAMGWSRQAPGKEWEFVAGISGSAGRTYYADSVKGRCTISRDNAKNTVYLQMNSLKPEDTAVYYCAAVYYSSLYDYWGQGTQVTVSS")
"low polyreactivity"
>>> result("QVQLVESGGGLVQAGGSLRLSCAASGSIFSRNAMGWYRQAPGKEREFVARISWSSTSTNYADSVKGRFTISRDNAKNTVYLQMNSLKPEDTAVYYCAADFRGDRRFDYWGQGTQVSVSS")
"low polyreactivity"
>>> result("QVQLVESGGGLVQAGGSLRLRCAASGRTFVGTAMGWYRQAPGKERELVAAISWDGGSPYYADSVKGRFTISRDNAKNTVYLQMNSLKPEDTAVYYCAALYRPSAFRGYGYWGQGTQVTVSS")
"high polyreactivity"

q: Query: polyreactivity (PSR sort gate); subject: `QVQLVESGGGLVQAGGSLRLSSAASGRIFPGYAMGWYRQAPGKEREFVAAITRSGGRTYYADSVKGRFTISRDNAKNTVYVQMNSLKPEDTAVYYCNRVYEYWSEYDYWGQGTQVTVSS`
a: high polyreactivity

q: Query: polyreactivity (PSR sort gate); subject: `QVQHVESGGGLVQAGGSLRLSCAASGITFVPNAMGWYRQAHGKERELVAAITSGDSTNYADSVKGRFTISRDNAKNTVYLQMNSLKPEDTAVYYCAADSWAQRPNQGRVSLHYYWGQGTLVTVSS`
a: low polyreactivity

q: Query: polyreactivity (PSR sort gate); subject: `QVQLEESGGGLVQAGGSLRLSCAASGLTFATYAIGWYRQAPGKERELVAAISRSGGRTYFADSVKGRFTISRDNAKNTVYLQMNSLKPEDTAVYYCNADFYASDDYWGQGTQVTVSS`
a: high polyreactivity

q: Query: polyreactivity (PSR sort gate); subject: `QVQLVESGGGLVQAGGSLRLSCAASGSTFAYYAMGWYRQAPGKERELVAASSVSGGRTYYADSVQGRFTISRDNAKNTVYLQMNSLKPEDTAVYYCAARLWRDYYWGQGTQVTVSS`
a: high polyreactivity

q: Query: polyreactivity (PSR sort gate); subject: `QVQLVESGGGLVQAGGSLRLSCAASGRTFVRNAMGWYRPAPGKERELVAAISSIGDSTYYADSVKGRFTISRDNAKNTVYLQMNSLKPEDTAVYYCAAEWVTSYYNYYHWGQGTQVTVSS`
a: low polyreactivity

q: Query: polyreactivity (PSR sort gate); subject: `QVQLVESGGGLVQSGGILRLSCAATGSIFTSDAMGWYRLAPGKEMELVAAITFSGGDTYYADSVKGRFTISRDNAKNTVYLQMNSLNPEDTAVYYCNADPQQVGAYEYWGQGTQVTLSS`
a: low polyreactivity

---

assayText: yeast display, Sf9 membrane polyspecificity reagent, FACS + sequencing; frameworks hold sequencing errors
endpointLabel: polyreactivity (PSR sort gate)

>>> result("QVQLVESGGGLVQAGGSLRLSCAAYGSTFYANAMGWYRQAPGKERELVAAISSGGSTYYADSVKGRFTISRYNAKNTVYLQMNSLKPEDTAVYYCAKPFYSYRYGFGYWGQGTQVTVSS")
"low polyreactivity"
>>> result("QDQLVESRGALVQAGGSLRLSCAASGITFVRNAMGWYRQAPGKERELVAAISSGGSTYYADSVKGRFTISRDNAKNTVYLQMNSLTREDTAVYYCAVLSSWRFSGYDYWGQGSQVTVSS")
"low polyreactivity"

---

assayText: yeast display, Sf9 membrane polyspecificity reagent, FACS + sequencing; frameworks hold sequencing errors
endpointLabel: polyreactivity (PSR sort gate)

>>> result("QVQLVESGGGLDQAGGSLRLSCAASGSIFPINAMGWYRQAPGKEREFDAAISSRGGSTYYADSVKGRFTISRDNAKNTVYFQMNSLKPEDTAVYYCAKYASVGYGRYPYDYWGQGTQVTVSS")
"high polyreactivity"
>>> result("QVRLVESGGGLVQAGGSLRLSCAASGSIFQYYVMGWYRQAPGKERELVAAISRNGGRTYYADSVKGRFTISRDNAKNTVYLQMNSLKPEDTAVYYCAADSIPHRDNYWGQGTQVTVSS")
"high polyreactivity"

---

assayText: yeast display, Sf9 membrane polyspecificity reagent, FACS + sequencing; frameworks hold sequencing errors
endpointLabel: polyreactivity (PSR sort gate)

Illustrative cases are given below, each with its answer.
>>> result("QVQLVESGGGLVQAGGSLRLSCAASGFIFGYYAMGWYRQAPGKERELVAAISRSGGRTYYADSVKGRFTISRDNAKNTVYLQMNSLKPEDTAVYYCAKGSNRSRGYYWGQGTQVTVSS")
"high polyreactivity"
>>> result("QVQLVESGGGLVQAGGSLRLSCAASGNIFGENAMGWYRQAPGKERELVAAITRIDGNTYYADSVKGRVTISRDNAKNTVYLQMNSLKPEDTAVYYCATDEPVGRYQHNYYWGQGTQVTVSS")
"low polyreactivity"
>>> result("QVQLVESGGGLVQAGGSLRLTCAASGFIYADNAMGWDRQAPGQERELVAAISGSGGGTYYADSVKGRFTISRDNAKNTVYLQMNSLKPEDTAVYYCAKSQYHRFDYWGQGTQVTVSS")
"low polyreactivity"
>>> result("QVQLVESGGGLVQAGGSLRLSCAASGFIFVQYAMGWYRQAPGKERELVAAISKGGGSTYYADSVKGRFTISRDNAKNTVYLQMNSLKPEDTAVYDCNADKVTRVTYWDDSWGQGTQVTVSS")
"high polyreactivity"
>>> result("QVQLVESGGGLVQAGGSLRLNCAASGRIFGYNDMGWSRQAPGKERELVAAIDYSAGSTYYADSVKGRFTISRDNAKNTVNLQMNSLKPEDTAVYYCNTDSESSLLSSRGYWGQGTQVTVSS")
"low polyreactivity"
>>> result("QVQLVESGGGLVQAGGSLRLSCAASGRTFYPYAMGWYRQAPGKARELVASINWSGASTYYADSVKGRFTISRDNAKNTVYLQMNSLKPEDTAVYYCAARYTPRRYYYWGQGTHVTVSS")
"high polyreactivity"
>>> result("QVQLVESGGGLVQAGGSLRLSCAASGIIIWGNAMAWYRQAPGKERELVAAISSSSGSTYYADSVKGRFTISRDNAKNTVYLQMNRLKPVDTAVYYCAVDTPRSYRAQGAYYYWGQGTQVTVSS")
"low polyreactivity"
>>> result("QVHLVESRGGLDQAGGSLRLSCAASGRTVYQYAMGRNRQAPGKERELVAAITRSGSRTYYADTVKGRFTISRDNAKNTVYLQMNSLKPEDTAVYYCAADGHGGFPIDEYYYWGQGTQVTVSS")
"high polyreactivity"

q: Query: polyreactivity (PSR sort gate); subject: `QVQLVESGGVLVQAGGSLRLSCAASGRTFRYYVKGWYRRAPGKERELLASITSNGDSTYYADSVKGRFTISRDNAKNTVYLQMNSLKPEDTAVYYCAVRWRDYRGSYRGFEYWGQGTQVTVSS`
a: high polyreactivity

q: Query: polyreactivity (PSR sort gate); subject: `QVQLVESGGGLVQAGGSLRLSCAASGGTFPQNVMGWYRPAPGKERELVAAISSGGSTYYADSVKVRFTISRDNAKNTVYFQMNSLIPEDTGVYYCAKRRWYRYDYWGQGTQVTVSS`
a: high polyreactivity

q: Query: polyreactivity (PSR sort gate); subject: `QVQLVESGGGLVQAGGSLRLSCAASGRTFDLYAMGWYRQAPGKERELVARITNIDDSTYYADSVKGRFTISRDYAKNTVYLQMNSLKPEDTAVYYCNAASYSRGPARYDYWGQGTQVTVSS`
a: high polyreactivity

q: Query: polyreactivity (PSR sort gate); subject: `QVQLVESGGGLVQAGGSLRLSCAASGIIFGVYAMGWYREAPGKERELVAAISRSGDSTYYADSVKGRFTISRDNAKNTVYLQMNSLKPEDTAVYYCAAEWYFTFDYWGQGTQVTVSS`
a: low polyreactivity

q: Query: polyreactivity (PSR sort gate); subject: `QVQLVESGGGLVQAGGSLRLSCAASGSIFAYNVMGWYRQAPGKEREFVAAISSGGRTTYADSVKGPFTISRDNAKNTVYLQMNSLKAEDTAVYYFNAYFLVHYRRLRPYEYWGQGTQVTVSS`
a: low polyreactivity

q: Query: polyreactivity (PSR sort gate); subject: `QVQLVESGGGLVQAGGSLRLTCASSGRIYVVNAMGWYRQAPGKEMELVADIYRSGGSTYYADSVKGRFTISRDYAKNTVYLQMNSLKPEDTAVYYCAAEDWPSSPSAPGFDYDYWGQATQVTVSS`
a: low polyreactivity
